In this section, each of the compounds is paired with its reported TGI.
Tested on: KM12 colon
Assay: NCI tumour cell line growth inhibition, 48 h

| compound | units | qualifying-sign | TGI |
| --- | --- | --- | --- |
| CC(C)NC(=O)OCc1c(COC(=O)NC(C)C)c(-c2ccc[n+](COC(=O)Cc3ccccc3)c2)n2c1CCC2 | µM | > | 100 |
| CC(=O)OCC1OC(N2C(=O)NC(=O)C3C=C4CCCCC4=CC32)CC1OC(C)=O (stereo not given) | µM | > | 100 |
| CC(C)C(Nc1ncnc2nc[nH]c12)C(=O)O (stereo not given) | µM | > | 100 |
| CCc1ccccc1NC(=O)C(C#N)C1=C(Cl)C(=O)c2ccccc2C1=O (stereo not given) | µM | = | 28.4 |
| CC(c1cc(Cl)ccc1O)c1cc(Cl)ccc1O | µM | = | 10.2 |
| CCC(=O)Nc1cccc(N=Cc2ccc(OC(=O)/C=C\c3ccccc3)cc2)c1 | µM | > | 75 |
| CCC12CCCN(Cc3ccccc3)C1c1c(n(C)c3ccccc13)C(CO)C2 (stereo not given) | µM | = | 89.4 |
| CC1(C)CC(=O)C=C(/C=C/Sc2c(Cl)c(Cl)nc(Cl)c2Cl)C1 | µM | = | 26.2 |
| [O-]/N=[N+](/[O-])C1CCCCC1=[N+]1CCOCC1 (stereo not given) | µM | > | 100 |
| COC1=C[C@]2(CCC(=O)O2)[C@@H]2Cc3ccccc3[C@H](O)[C@@H]2C1=O | µM | > | 100 |

====

Tested on: LXFL 529 NSCLC
Assay: NCI tumour cell line growth inhibition, 48 h
readout-kind: TGI

| compound | readout-kind | recorded-result |
| --- | --- | --- |
| C/C(=N\NC(=S)N1CCN(c2ccccn2)CC1)c1ccccn1 | TGI | 14.2 µM |
| OCC1OC2c3ccccc3COC2C1OCc1ccccc1 (centres undefined) | TGI | > 100 µM |
| CC1(C)OC[C@H](C(=N)OCc2ccccc2)O1 | TGI | > 100 µM |
| COC(=O)[C@H](CC(C)C)NC(=O)[C@H](Cc1ccccc1)N1CC2C=CC1C2 (some centres undefined) | TGI | > 100 µM |
| COc1ccc(Nc2nc3cc(C(F)(F)F)ccc3nc2-c2ccccc2)cc1OC | TGI | > 100 µM |
| COc1cccc2c1C(=O)c1c(O)c3c(c(O)c1C2=O)C[C@@](O)(C(C)=O)CC3S(=O)(=O)O (some centres undefined) | TGI | > 100 µM |
| CCC12CCCN(Cc3ccccc3)C1c1c(n(C)c3ccccc13)C(CO)C2 (centres undefined) | TGI | 87.4 µM |
| [O-]/N=[N+](/[O-])C1CCCCC1=[N+]1CCOCC1 (centres undefined) | TGI | > 100 µM |
| O=C(O)CN(c1ccccc1)S(=O)(=O)c1cccc([N+](=O)[O-])c1 | TGI | > 100 µM |
| Nc1nc(NCCOCP(=O)(O)O)c([N+](=O)[O-])c(=O)[nH]1 | TGI | > 100 µM |
| CC(C)OP(=S)(NC(=S)c1ccccc1)OC(C)C | TGI | > 100 µM |
| CC1=NN(C(=O)Cc2ccccc2)C(=O)/C1=C\c1ccc([N+](=O)[O-])cc1 | TGI | > 100 µM |
| O=C(CCC(=O)Nc1ccc(Cl)c(Cl)c1)CC(=O)c1ccc2ccccc2c1 | TGI | > 100 µM |
| O=C(COc1ccccc1Cl)N1N=C(c2ccccc2)CC1(O)c1ccccc1 (centres undefined) | TGI | > 100 µM |
| COC(=O)Cc1c([C@@]2(C)CCCC(C)(C)C2)ccc2c1C(=O)OC2 | TGI | 27.2 µM |
| O=C(Cc1nc2ccc(C(=O)c3ccccc3)cc2[nH]c1=O)C(=O)Nc1nc2ccccc2[nH]1 | TGI | > 100 µM |
| O=C1C(=c2ccc(=C3C(=O)c4ccc([N+](=O)[O-])cc4[N+]3=O)cc2)N([O-])c2cc([N+](=O)[O-])ccc21 | TGI | > 100 µM |
| Cc1cc(=O)oc2cc(OCCCOc3ccc4c(C)cc(=O)oc4c3)ccc12 | TGI | > 100 µM |
| CCCCCCCCCCNCCSSCc1ccc(Cl)cc1 | TGI | 2.9 µM |
